Reported values of koff for individual entries
Molecular target: T1, human serum albumin (human, UniProt P02768 25-609)
T1 construct: Amine-coupled to the chip (EDC/NHS); also called HSA
T1 sequence (P02768 25-609 limits assumed): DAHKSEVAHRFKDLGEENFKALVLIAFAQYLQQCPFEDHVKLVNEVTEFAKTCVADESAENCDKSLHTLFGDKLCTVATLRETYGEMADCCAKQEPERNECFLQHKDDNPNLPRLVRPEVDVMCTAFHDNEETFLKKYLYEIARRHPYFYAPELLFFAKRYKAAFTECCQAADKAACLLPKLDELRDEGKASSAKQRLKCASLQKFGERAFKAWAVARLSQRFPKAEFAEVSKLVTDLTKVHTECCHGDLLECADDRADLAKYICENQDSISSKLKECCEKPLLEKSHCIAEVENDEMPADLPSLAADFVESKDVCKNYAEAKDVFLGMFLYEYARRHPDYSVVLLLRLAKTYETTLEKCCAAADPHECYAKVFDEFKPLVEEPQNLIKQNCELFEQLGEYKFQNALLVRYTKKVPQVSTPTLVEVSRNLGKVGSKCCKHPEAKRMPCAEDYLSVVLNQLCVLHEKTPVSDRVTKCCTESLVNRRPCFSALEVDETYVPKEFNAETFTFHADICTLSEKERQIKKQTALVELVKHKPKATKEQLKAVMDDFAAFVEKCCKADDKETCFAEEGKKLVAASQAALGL
Experiment: ProteOn kinetic analysis

binder	koff
SEQ ID NO 10 (VHH, also called R at position 30) VHH: EVQLVESGGGVVQPGGSLRLSCAASGFTFRSFGMSWVRQAPGKGPEWVSSISGSGSDTLYADSVKGRFTISRDNSKNTLYLQMNSLRPEDTALYYCTIGGSLSRSSQGTLVTVSS	0.00084 s⁻¹
SEQ ID NO 127 (VHH, also called T at position 30) VHH: DVQLVESGGGVVQPGGSLRLSCAASGFTFTSFGMSWVRQAPGKGPEWVSSISGSGSDTLYADSVKGRFTISRDNSKNTLYLQMNSLRPEDTALYYCTIGGSLSRSGQGTLVTVSS	0.0014 s⁻¹
SEQ ID NO 145 (VHH, also called T at position 30) VHH: DVQLVESGGGVVQPGGSLRLSCAASGFTFTSFGMSWVRQAPGKGPEWVSSISGSGSDTLYADSVKGRFTISRDNSKNTLYLQMNSLRPEDTAAYYCTIGGSLSRSGQGTLVTVSS	0.0014 s⁻¹
SEQ ID NO 129 (VHH, also called T at position 30) VHH: DVQLVESGGGVVQPGGSLRLSCAASGFTFTSFGMSWVRQAPGKGPEWVSSISGSGSDTLYADSVKGRFTISRDNSKNTLYLQMNSLRPEDTATYYCTIGGSLSRSGQGTLVTVSS	0.0015 s⁻¹
